details: in toluene, 290.65 K
experimental readout: solubility (mole fraction)
// keep it numeric: no unit symbol after the value

Sure, the documented solubility (mole fraction) for Cc1ccc(N)c([N+](=O)[O-])c1 is 0.0194

---

details: in acetonitrile, 303.15 K
experimental readout: solubility (mole fraction)
Give a plain numeric answer without units written out.

So, Cc1ccc(N)c([N+](=O)[O-])c1 ? Its solubility (mole fraction) was 0.0721

---

details: in 1,2-dichloroethane, 318.15 K
experimental readout: solubility (mole fraction)

solubility (mole fraction) in this record for Cc1ccc(N)c([N+](=O)[O-])c1 : 0.109

---

details: in methanol, 295.65 K
experimental readout: solubility (mole fraction)

Lab note: measured solubility (mole fraction) of Cc1ccc(N)c([N+](=O)[O-])c1 was 0.0156
